System: SMN protein
procedureSummary: cellular SMN ELISA (SMN protein elevation)
Type: cell-based
statedConditions: myoblast cell line derived from SMNdelta7 mouse model; 24 hours compound treatment; concentration range 100 pM-10 uM
propertyLabel: SMN Activity Fold (fold activation over DMSO control) (fold)
Record the value in fold, omitting the unit from your answer.

Before answering, review these 2 worked examples.
> print(dat)
                                   compound  recordednumber
1  COc1cc(-c2ccn[nH]2)ccc1-c1nnc(N(C)C2CC(C)(C)NC(C)(C)C2)s1 [Example 73]            2.73
2  COc1cc2nc(C#N)ccc2cc1-c1nnc(N(C)C2CC(C)(C)NC(C)(C)C2)s1 [Example 37]            2.19

Data request: Fill in the recorded SMN Activity Fold (fold activation over DMSO control) for this compound, with SMN protein as test system: CN1C[C@@H]2CN(c3nnc(-c4ccc(-n5ccnc5)cc4Cl)s3)C[C@@H]2C1 [Example 70]
Data returned: 2.17

Data request: Also, CN(c1nnc(-c2ccc(-n3ccc(N)n3)cc2Cl)s1)C1CC(C)(C)NC(C)(C)C1 [Example 69] please.
Data returned: 2.44

Data request: Repeat for the following compound: COc1cc(-c2ncc(C)o2)cc(O)c1-c1nnc(N(C)C2CC(C)(C)NC(C)(C)C2)s1 [Example 28]
Data returned: 2.70

Data request: Then what about the compound COc1cc(-c2cn[nH]c2)ccc1-c1nnc(N(C)C2CC(C)(C)NC(C)(C)C2)s1 [Example 7] ?
Data returned: 2.86

Data request: Can you handle COc1cc(-c2ccc(O)nc2)ccc1-c1nnc(N(C)C2CC(C)(C)NC(C)(C)C2)s1 [Example 9] next?
Data returned: 2.46

Data request: Next compound up: CN(c1nnc(-c2cc3cc(C#N)ccc3s2)s1)C1CC(C)(C)NC(C)(C)C1 [Example 108]
Data returned: 2.72

Data request: Lookup CN(c1nnc(-c2ccc(-n3cccn3)cc2O)s1)C1CC(C)(C)NC(C)(C)C1 [Example 87]
Data returned: 2.76

Data request: Also, COc1cc(-c2cn[nH]c2)cc(F)c1-c1nnc(N2C[C@H]3CN(C)C[C@H]3C2)s1 [Example 62] please.
Data returned: 2.01

Data request: Next compound: CN1C[C@@H]2CN(c3nnc(-c4ccc(-c5cn[nH]c5)cc4Cl)s3)C[C@@H]2C1 [Example 80]
Data returned: 2.70

Data request: // next record CN(c1nnc(-c2ccc(-c3cn[nH]c3)c(F)c2F)s1)C1CC(C)(C)NC(C)(C)C1 [Example 48]
Data returned: 3.04

Data request: Same again, this time with CN(c1nnc(-c2cc3ccccc3nc2O)s1)C1CC(C)(C)NC(C)(C)C1 [Example 23]
Data returned: 2.66

Data request: Item: CN(c1nnc(-c2sc3ccccc3c2Cl)s1)C1CC(C)(C)NC(C)(C)C1 [Example 109]
Data returned: 2.75

Data request: Can you handle CN(c1nnc(-c2ccc(-c3ccc(N)nc3)cc2F)s1)C1CC(C)(C)NC(C)(C)C1 [Example 45] next?
Data returned: 2.26

Data request: Quick one: CN1CC[C@@H]2CN(c3nnc(-c4ccc(-c5cn[nH]c5)cc4Cl)s3)C[C@@H]21 [Example 81]
Data returned: 2.38

* * *

System: SMN protein
procedureSummary: cellular SMN ELISA (SMN protein elevation)
Format: cell-based
statedConditions: myoblast cell line derived from SMNdelta7 mouse model; 24 hours compound treatment; concentration range 100 pM-10 uM
EC50 overview
Please give a number only; it is taken to be in nM.

> print(dat)
                                   compound  unitannotation  recordednumber
1  CN(C)CC1CN(c2nnc(-c3ccc(-c4cn[nH]c4)cc3Cl)s2)CCO1 (centres unmarked)              nM             994

Data request: Reported EC50 for CN(c1nnc(-c2cc3ccccc3n(C)c2=O)s1)C1CC(C)(C)NC(C)(C)C1 : what is it?
Data returned: 100

Data request: Another compound: CN(c1nnc(-c2ccc(-n3ccnc3)cc2Cl)s1)C1CC(C)(C)NC(C)(C)C1
Data returned: 32

* * *

Collected EC50 values appear next to each entry.
System: SMN protein
procedureSummary: cellular SMN ELISA (SMN protein elevation)
Format: cell-based
statedConditions: myoblast cell line derived from SMNdelta7 mouse model; 24 hours compound treatment; concentration range 100 pM-10 uM
Counter-ions that a name gives are not always drawn.
Use nM as the unit, but write only the number.

# annotated cases, reported EC50 shown
> print(dat)
                                    compound  recordednumber
 1  CN1C[C@@H]2CN(c3nnc(-c4ccc(-c5cn[nH]c5)cc4Cl)s3)C[C@@H]2C1 [Example 80]             149
 2  COc1cc(C#N)ccc1-c1nnc(N(C)C2CC(C)(C)NC(C)(C)C2)s1 [Example 33]            1040
 3  COc1cc2ccccc2cc1-c1nnc(N(C)C2CC(C)(C)NC(C)(C)C2)s1 [Example 4]             887
 4  COc1c(-c2nnc(N(C)C3CC(C)(C)NC(C)(C)C3)s2)c(=O)n(C)c2ccccc12 [Example 101]             742
 5  CNc1ccn(-c2ccc(-c3nnc(N(C)C4CC(C)(C)NC(C)(C)C4)s3)c(O)c2)n1 [Example 89]             106
 6  Cc1cc(-c2cnn(C)c2)ccc1-c1nnc(N(C)C2CC(C)(C)NC(C)(C)C2)s1 [Example 11]             684
 7  CN(c1nnc(-c2ccc(-c3ccc(O)nc3)cc2O)s1)C1CC(C)(C)NC(C)(C)C1 [Example 19]              51
 8  CN(c1nnc(-c2ccc(-c3ccn[nH]3)c(F)c2F)s1)C1CC(C)(C)NC(C)(C)C1 [Example 49]              81
 9  CN(c1nnc(-c2ccc(-c3ccc(N)nc3)cc2F)s1)C1CC(C)(C)NC(C)(C)C1 [Example 45]             163
10  Clc1cc(-c2cn[nH]c2)ccc1-c1nnc(N2CCC3(CCCNC3)C2)s1 (centres unmarked) [Example 106]            1660

Data request: What value of EC50 has been recorded for this entry: COc1cc(-c2ccc(=O)n(C)c2)ccc1-c1nnc(N(C)C2CC(C)(C)NC(C)(C)C2)s1 [Example 10]
Data returned: 79

Data request: Same again, this time with COc1cc(-c2cccnc2)ccc1-c1nnc(N(C)C2CC(C)(C)NC(C)(C)C2)s1 [Example 75]
Data returned: 235

Data request: Now the same for CN(c1nnc(-c2ccc(-c3cnn(C)c3)cn2)s1)C1CC(C)(C)NC(C)(C)C1 [Example 42, Hydrochloride salt]
Data returned: 675

Data request: Cool, now Clc1cc(-c2cn[nH]c2)ccc1-c1nnc(N2C[C@H]3CNC[C@H]3C2)s1 [Example 105, Hydrochloride Salt]
Data returned: 181

Data request: # repeat for CN(c1nnc(-c2ccc(-c3ccn[nH]3)cc2F)s1)C1CC(C)(C)NC(C)(C)C1 [Example 47]
Data returned: 152

Data request: Next compound: CN(c1nnc(-c2c(O)cc(-c3cn[nH]c3)cc2F)s1)C1CC(C)(C)NC(C)(C)C1 [Example 90]
Data returned: 6

Data request: Moving on to CNc1ccn(-c2ccc(-c3nnc(N(C)C4CC(C)(C)NC(C)(C)C4)s3)c(OC)c2)n1 [Example 36]
Data returned: 163

Data request: Proceed to CN(c1nnc(-c2ccc(-c3ccnc(N)n3)cc2Cl)s1)C1CC(C)(C)NC(C)(C)C1 [Example 56]
Data returned: 41

Data request: Do the same for COc1cc(-c2cn[nH]c2)c(F)c(F)c1-c1nnc(N(C)C2CC(C)(C)NC(C)(C)C2)s1 [Example 63] please
Data returned: 47

* * *

System: SMN protein
procedureSummary: cellular SMN ELISA (SMN protein elevation)
Type: cell-based
statedConditions: myoblast cell line derived from SMNdelta7 mouse model; 24 hours compound treatment; concentration range 100 pM-10 uM
propertyLabel: SMN Activity Fold (fold activation over DMSO control) (fold)
Give your result in fold as a bare value.

> print(dat)
                                   compound  unitannotation  recordednumber
1  COc1cc(C#N)ccc1-c1nnc(N(C)C2CC(C)(C)NC(C)(C)C2)s1 [Example 33]            fold            2.16

Could you now consider this next compound?
Data request: Quick one: SMN Activity Fold (fold activation over DMSO control) for CN1C[C@@H]2CN(c3nnc(-c4ccc(-c5cnn(C)c5)cc4Cl)s3)C[C@@H]2C1 [Example 79] ?
Data returned: 2.76

* * *

Tested on: SMN protein
procedureSummary: cellular SMN ELISA (SMN protein elevation)
Assay type: cell-based
statedConditions: myoblast cell line derived from SMNdelta7 mouse model; 24 hours compound treatment; concentration range 100 pM-10 uM
Counter-ions that a name gives are not always drawn.
propertyLabel: SMN Activity Fold (fold activation over DMSO control) (fold)
Just the number please, in fold, no unit attached.

Take a look at these entries with their results.
> print(dat)
                                   compound  recordednumber
1  CN(c1nnc(-c2ccc(-c3ccnc(N)n3)cc2Cl)s1)C1CC(C)(C)NC(C)(C)C1 [Example 56]            2.47
2  CN(c1nnc(-c2c(O)c3ccccc3n(C)c2=O)s1)C1CC(C)(C)NC(C)(C)C1 [Example 102]            2.71
3  COc1cc(-c2ccn(C)c(=O)c2)ccc1-c1nnc(OC2CC(C)(C)NC(C)(C)C2)s1 [Example 38]            2.12
4  CNc1ccn(-c2ccc(-c3nnc(N(C)C4CC(C)(C)NC(C)(C)C4)s3)c(O)c2)n1 [Example 89]            2.85
5  CN(c1nnc(-c2ccc3cc(O)ccc3c2)s1)C1CC(C)(C)NC(C)(C)C1 [Example 2]            2.66
6  Clc1cc(-c2cn[nH]c2)ccc1-c1nnc(N2CCC3(CCCNC3)C2)s1 (stereo not shown) [Example 106]            2.50
7  Cc1nc(C)c(-c2ccc(-c3nnc(N(C)C4CC(C)(C)NC(C)(C)C4)s3)c(F)c2F)s1 [Example 59]            2.69
8  CN(c1nnc(-c2ccc(-c3cn[nH]c3)cc2Cl)s1)C1CC(C)(C)NC(C)(C)C1 [Example 40]            2.55

Data request: # SMN Activity Fold (fold activation over DMSO control) lookup, item Clc1cc(-c2cn[nH]c2)ccc1-c1nnc(N2C[C@H]3CNC[C@H]3C2)s1 [Example 105, Hydrochloride Salt]
Data returned: 2.21

Data request: Let us now turn to CN(c1nnc(-c2c(O)cc(-c3cn[nH]c3)cc2Cl)s1)C1CC(C)(C)NC(C)(C)C1 [Example 97]
Data returned: 2.45

Data request: Same question, CN(c1nnc(-c2ccc(-c3ccc(O)nc3)cc2O)s1)C1CC(C)(C)NC(C)(C)C1 [Example 19] this time
Data returned: 2.85

Data request: And for CN(c1nnc(-c2ccc(-c3cnn(C)c3)cc2Cl)s1)C1CC(C)(C)NC(C)(C)C1 [Example 25] ?
Data returned: 2.49

Data request: Would you kindly repeat that for CN(c1nnc(-c2c(O)cc(-c3ccn(C)c(=O)c3)cc2OC(F)(F)F)s1)C1CC(C)(C)NC(C)(C)C1 [Example 60] ?
Data returned: 2.69

Data request: Next record, please: CN(c1nnc(-c2cc3ccc(O)cc3cc2O)s1)C1CC(C)(C)NC(C)(C)C1 [Example 20]
Data returned: 2.63

Data request: What would you report for CN(c1nnc(-c2ccc(-c3ccn(C)c(=O)c3)cc2OC(F)(F)F)s1)C1CC(C)(C)NC(C)(C)C1 [Example 12] ?
Data returned: 2.20

Data request: One more compound: COc1c(-c2nnc(N(C)C3CC(C)(C)NC(C)(C)C3)s2)c(=O)n(C)c2ccccc12 [Example 101]
Data returned: 2.51

The measurements presented in this section are drawn from patent US9040712B2.
